Overview of reported SPOT peptide array binding signal intensity across a group of binders:
- target.desc: CaSla1-D1-D2
- protocol.details: SPOT peptide array binding signal intensity (averaged, normalized) (arbitrary units (background-subtracted, floor 0; scale differs between SH3 domains)); higher = stronger binding of the SH3 domain to the peptide
measure.name: SPOT peptide array binding signal intensity

{"binder": "SHRLWLYAAPKRPKT", "result.operator": "=", "observed.measurement": 10.5}
{"binder": "RPVPPPPPMRTTTEG", "result.operator": "=", "observed.measurement": 1590}
{"binder": "FYHRPAPKPPVTKKV", "result.operator": "=", "observed.measurement": 105}
{"binder": "APERAVPILPPRNNV", "result.operator": "=", "observed.measurement": 1}
{"binder": "PAPPPPPRASRPTPN", "result.operator": "=", "observed.measurement": 242}
{"binder": "PPIPIVPSSPAPPLP", "result.operator": "≤", "observed.measurement": 0}
{"binder": "SRSKPLPLTPNSKYN", "result.operator": "=", "observed.measurement": 1430}
